Source of measurements: the RNAGym collection of RNA variant scans (doi:10.7554/elife.90254)

Reported values of self-cleavage for individual entries
B1: LINE1-mini (parent)
chain: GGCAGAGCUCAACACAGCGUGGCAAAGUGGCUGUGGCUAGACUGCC

Variants of: B1
Experiment: self-cleavage, relative activity (ratio to wild type); higher = more cleavage; in vitro, sequencing; the parent is a self-cleaving ribozyme
Give the value as a plain number.

As a guide, the following entries are already answered.
C23G A25G :: 1
C23U G27C :: 0.73

Determine its reported self-cleavage: G22A G36U
0.15

Determine its reported self-cleavage: C3G C10G
0.04

Determine its reported self-cleavage: C8A A26C
0.26

Determine its reported self-cleavage: G29C C37G
0.02

Determine its reported self-cleavage: U9G C37G
0.05

Determine its reported self-cleavage: A4U G40C
0.07

Determine its reported self-cleavage: G2C C13G
0.03

Determine its reported self-cleavage: G30U C37U
0.05

Determine its reported self-cleavage: C18A U28C
0.49

Determine its reported self-cleavage: G40C A41G
0.07
